test.method.notes: qHTS for Inhibitors of human tyrosyl-DNA phosphodiesterase 1 (TDP1): qHTS in cells in presence of CPT; note: nearly all actives have a fitted effect of over 55% in size
measurement.parameters: chicken DT40 Tdp1-/-;hTDP1 cells + 20 nM CPT, ATP luminescence, 48 h; series mostly up to 46.2 µM
In all, about 420,000 compounds went through this assay and about 50,000 (12%) were called active. Roughly 26% stayed inconclusive and do not appear here. Calls come from the whole dose curve; as a rule, active = well fitted inhibition curve with a large enough effect; inconclusive = small, poorly fitted or top-dose-only effect; inactive = flat fitted curve, though single readings scatter. What follows is part of a selection rich in actives, with near analogues and random picks from the rest.
Your response should consist of one outcome taken from active, inactive

>>> qualitative_label("CCOC(=O)N1CCN(C(=O)C(=O)Nc2sc3c(c2C#N)CC(C)(C)OC3)CC1")
"inactive"

Input line: So what was the verdict on COC(=O)c1sccc1NC(=S)Nc1ccc(C)cc1 in this test?
Output line: inactive

Input line: // query: O=C(COC(=O)c1ccncc1)Nc1ccc2c(c1)OCO2
Output line: inactive

Input line: C=CCC[C@H](Cc1ccc(F)cc1)C(=O)OC[C@@H](Cc1c[nH]c2ccccc12)NC(=O)[C@H](CC=C)CC(=O)N[C@H](CO)Cc1ccccc1 , same question.
Output line: active

----------
test.method.notes: qHTS for Inhibitors of human tyrosyl-DNA phosphodiesterase 1 (TDP1): qHTS in cells in presence of CPT; note: nearly all actives have a fitted effect of over 55% in size
measurement.parameters: chicken DT40 Tdp1-/-;hTDP1 cells + 20 nM CPT, ATP luminescence, 48 h; series mostly up to 46.2 µM
Hit rate of the full screen: of about 420,000 compounds, about 50,000 (12%) were called active. Another 26% or so got no clear call; they are omitted. The call rests on the fitted dose curve; in most records, active means well fitted inhibition curve with a large enough effect; inconclusive means small, poorly fitted or top-dose-only effect; inactive means flat fitted curve, though single readings scatter. Shown is part of a subset that was picked to be rich in actives.
Select the correct class. Options are y (active), n (inactive) and nothing else.

Some entries whose results are on file:
>>> qualitative_label("CN(C(=O)COc1nnc(-c2cccs2)c(-c2cccs2)n1)c1ccccc1")
"y"
>>> qualitative_label("COc1ccc(NC(=O)NCc2ccc3c(c2)OCO3)c(OC)c1")
"n"
>>> qualitative_label("NC(=O)CSc1nnc(-c2cccc(S(=O)(=O)N3CCOCC3)c2)o1")
"n"
>>> qualitative_label("O=C(CSc1nc(=O)n(Cc2cccnc2)c2c1CCC2)Nc1ccc(F)cc1F")
"n"
>>> qualitative_label("O=C(NCc1cccs1)C(=O)NCC1OCCCN1S(=O)(=O)c1ccc(F)cc1 (configuration not stated)")
"n"
>>> qualitative_label("CC1CC(C)CN(S(=O)(=O)c2ccc(C(=O)NN3CCOCC3)cc2)C1 (configuration not stated)")
"n"
>>> qualitative_label("COc1cccc(CNCc2ccc3c(c2)OCO3)c1")
"n"
>>> qualitative_label("CS(=O)(=O)c1ccc(-c2nnc(NC(=O)c3ccc4c(c3)OCCO4)o2)cc1")
"n"

Input line: Which outcome did this test record for the compound Cc1ccc(C2=CSC3=NS(=O)(=O)CCN23)cc1C ?
Output line: n

Input line: Same for CC1CCCCN1S(=O)(=O)CCNC(=O)c1ccccc1 (configuration not stated)
Output line: n

----------
test.method.notes: qHTS for Inhibitors of human tyrosyl-DNA phosphodiesterase 1 (TDP1): qHTS in cells in presence of CPT; note: nearly all actives have a fitted effect of over 55% in size
measurement.parameters: chicken DT40 Tdp1-/-;hTDP1 cells + 20 nM CPT, ATP luminescence, 48 h; series mostly up to 46.2 µM
About 50,000 (12%) of roughly 420,000 compounds were called active. Not shown: some 26% with an inconclusive outcome. Calls follow the shape of the dose curve; as a rule, active = well fitted inhibition curve with a large enough effect; inconclusive = small, poorly fitted or top-dose-only effect; inactive = flat fitted curve, though single readings scatter. The sample holds actives, similar compounds and a random draw of the others, so the mix is not that of the screen.
Entry note: the call must match one of label 1 (active), label 0 (inactive)

Completed entries (count: 5):
>>> qualitative_label("CN(CC(=O)Nc1cccc(F)c1)C(=O)C1CSC2(C)CCC(=O)N12 (stereo not given)")
"label 0"
>>> qualitative_label("CCOc1cc(/C=N/O)ccc1OCc1ccccc1F")
"label 0"
>>> qualitative_label("CCOC(=O)C1(Cc2cccc(OC)c2)CCCN(S(=O)(=O)c2cccnc2)C1 (stereo not given)")
"label 0"
>>> qualitative_label("Cc1cccc(S(=O)(=O)c2cn(Cc3ccccc3)c3cc(N4CCOCC4)c(F)cc3c2=O)c1")
"label 1"
>>> qualitative_label("O=C(Cn1ncn2nc(-c3cccs3)cc2c1=O)NCc1cccc(Br)c1")
"label 0"

Input line: How was CCn1cc(S(=O)(=O)c2cccc(C)c2)c(=O)c2cc(F)c(N3CCN(C)CC3)cc21 classified in this test?
Output line: label 0

Input line: Entry to check: CC1=NOC(=O)/C1=C\c1ccccc1
Output line: label 0

Input line: Another compound: O=C(NCc1nnnn1-c1ccc(Cl)cc1)c1ccc([N+](=O)[O-])o1
Output line: label 1

Input line: One more compound: Nn1c(SCC(=O)Nc2ccc3c(c2)CCC3)nnc1C1CC1
Output line: label 0

Input line: Can you check COc1ccc(CCNC(=S)N2CCN(S(=O)(=O)c3ccc(F)cc3)CC2)cc1 next?
Output line: label 0
